# Tested on: HEK-293T
# measurement.notes: Multiplex assay against HEK293T
# Format: toxicity, cell-based
# stated.conditions: human, 48 h, 1 µM, compound concentration 1 uM, replicate 2
measurement.type: Population Healthy Nuclei (%)
Numbers only, in %.

Answer for every listed entry: what is its Population Healthy Nuclei (%)? The entries follow.
1. CN(C)C(=O)C(CCN1CCC(O)(c2ccc(Cl)cc2)CC1)(c1ccccc1)c1ccccc1.Cl [LOPERAMIDE HYDROCHLORIDE]
2. O=C1N/C(=N/c2ccccc2F)S/C1=C\c1ccc(C(=O)O)cc1
3. Cl.Oc1ccc2c3c1O[C@H]1c4[nH]c5c(c4C[C@@]4(O)[C@@H](C2)N(CC2CC2)CC[C@]314)C[C@@]1(O)[C@H]2Cc3ccc(O)c4c3[C@@]1(CCN2CC1CC1)[C@H]5O4
4. Cc1cn(-c2cc(NC(=O)c3ccc(C)c(Nc4nccc(-c5cccnc5)n4)c3)cc(C(F)(F)F)c2)cn1
5. O=C(Nc1ccc(-c2ccnc(Nc3ccc(N4CCOCC4)cc3)n2)cc1)[C@@H]1CCCN1
6. Cc1ccc(C(=O)Nc2cccc(C(F)(F)F)c2)cc1Nc1nc(-c2cccnc2)nc2c1cnn2C
7. CNc1cc(Oc2cc(C(=O)Nc3cc(N4CCN(C)CC4)cc(C(F)(F)F)c3)ccc2C)ncn1

[69, 80, 77, 80, 84, 63, 65]

Answer for every listed entry: what is its Population Healthy Nuclei (%)? The entries follow.
1. CCOc1cc(C(=O)N2CCC(N3CCN(C)CC3)CC2)ccc1Nc1ncc2c(n1)N(C1CCCC1)c1ccccc1C(=O)N2C
2. CCCn1c(=O)c2[nH]c(-c3cnn(Cc4cccc(C(F)(F)F)c4)c3)nc2n(CC)c1=O

[48, 81]

----------
# Tested on: Fibroblast
# measurement.notes: Multiplex assay against human fibroblast
# Format: toxicity, cell-based
# stated.conditions: 24 h, 10 µM, compound concentration 10 uM, replicate 2
Please respond with reported Population Apoptotic (%) for every item in the list.
Answers are plain numbers, in %.

Solved entries (count: 2):
- compound: "CCCS(=O)(=O)c1nc(NC2CC2)cc(-c2ccc3c(ccn3C3CC(C)(C)NC(C)(C)C3)c2)n1"
  u: "%"
  Population Apoptotic (%): 90
- compound: "COc1ccc(S(=O)(=O)N(CCO)c2ccccc2CN(C)C/C=C/c2ccc(Cl)cc2)cc1.O=P(O)(O)O"
  u: "%"
  Population Apoptotic (%): 75

Answer for every listed entry: what is its Population Apoptotic (%)? The entries follow.
1. CCCn1c(=O)c2[nH]c(-c3cnn(Cc4cccc(C(F)(F)F)c4)c3)nc2n(CC)c1=O [GS 6201]
2. C=C1/C(=C\C=C2/CCC[C@]3(C)[C@@H]([C@H](C)/C=C/[C@H](C)C(C)C)CC[C@@H]23)C[C@@H](O)C[C@@H]1O [DOXERCALCIFEROL]
3. CCCS(=O)(=O)Nc1ccc(F)c(C(=O)c2c[nH]c3ncc(Cl)cc23)c1F [PLX-4720]
4. C=CCn1c(=O)c2cnc(Nc3ccc(N4CCN(C)CC4)cc3)nc2n1-c1cccc(C(C)(C)O)n1 [ADAVOSERTIB]
5. NC(=O)c1cccc(-c2cc(Nc3ccc(OC(F)(F)F)cc3)ncn2)c1
6. O=C1NC(=O)C(c2cnc3ccccn23)=C1c1cn2c3c(cc(F)cc13)CN(C(=O)N1CCCCC1)CC2 [LY-2090314]

50
33
50
100
40
81

Values from ChEMBL document CHEMBL4689842
